Source listed as paper PMC4552634.

- Tested on: P. falciparum stage V gametocytes
- Set-up: BacTiter-Glo ATP luminescence viability of purified stage V gametocytes in 384-well plates, per cent inhibition versus DMSO
- test conditions: 48 h, 5 µM; inhibitor
Among all 13,000 compounds or so, about 3,200 (25%) showed an effect of 50% or more. Some of the results follow.
test readout: % Inhibition (%)
Quick reminder: number only, in %, skip the unit.

>>> numeric_readout("CC(C)C[C@H](NC(=O)c1cc2ccccc2s1)C(=O)N[C@H]1CCN(Cc2ccc(OC[C@@H]3CCCN3C)c(Cl)c2)C1 [TCMDC-140292]")
28.24
>>> numeric_readout("COc1ccc(Nc2nccc(N3CCC(NC(=O)c4cc5ccccc5s4)C3)n2)cc1 (stereo not shown) [TCMDC-133614]")
-3.392
>>> numeric_readout("CC(C)C[C@H](NC(=O)c1cc2ccccc2s1)C(=O)N[C@H]1CCN(Cc2ccc(OCCN3CCNCC3)c3ccccc23)C1 [TCMDC-140289]")
107.5

Request: Which % Inhibition reading was recorded for the compound CC(=O)C1(c2ccccc2)CCN(CCC2(c3ccc(Cl)c(Cl)c3)CN(C(=O)CC(C)C)CCO2)CC1 (stereo not shown) [TCMDC-135324] ?
Result: -34.64

---

- Tested on: P. falciparum stage V gametocytes
- Design: BacTiter-Glo ATP luminescence viability of purified stage V gametocytes in 384-well plates, per cent inhibition versus DMSO
- test conditions: 48 h, 5 µM; inhibitor
About 3,200 (25%) of roughly 13,000 compounds showed an effect of 50% or more. The list shows a part of the results.
test readout: % Inhibition (%)
Quick reminder: number only, in %, skip the unit.

These solved cases illustrate the format of a correct answer.
>>> numeric_readout("OC1CCC(Nc2ccc3ncc(-c4ccc5ccccc5c4)n3n2)CC1 (centres unmarked)")
25.44
>>> numeric_readout("CN1CCN(c2ccc(CNc3ccc4ncc(-c5ccc(OC(F)(F)F)cc5)n4n3)cc2)CC1")
-0.7792
>>> numeric_readout("CN(C)CCNC(=O)c1cccc(-c2cnc3ccc(NCc4ccc(Cl)c(Cl)c4)nn23)c1")
49.91
>>> numeric_readout("CN1CCN(c2ccc(CNc3ccc4ncc(-c5cccc(OC(F)(F)F)c5)n4n3)cc2)CC1")
11.23

Request: Which % Inhibition reading was recorded for the molecule "Clc1ccc(-c2cnc3ccc(NCCc4cccnc4)nn23)cc1" ?
Result: -25.41

Request: Which % Inhibition reading was recorded for the molecule "CNc1ccc(CNCc2ccc(-c3ccc(-c4nc5cccc(C)c5[nH]4)cc3)cc2)cc1.O=C(O)C(F)(F)F" ?
Result: 83.67

Request: Which % Inhibition reading was recorded for the molecule "COc1ccc(NC(=O)/C=C/c2ccc(Cl)c(C(F)(F)F)c2)cc1OCCN(C(C)C)C(C)C" ?
Result: -39.1

Request: Which % Inhibition reading was recorded for the molecule "Cc1cccc2nc(-c3ccc(-c4ccc(CNCCc5ccncc5)cc4)cc3)[nH]c12.O=C(O)C(F)(F)F" ?
Result: 4.84

---

- Test system: P. falciparum stage V gametocytes
- Design: BacTiter-Glo ATP luminescence viability of purified stage V gametocytes in 384-well plates, per cent inhibition versus DMSO
- test conditions: 48 h, 5 µM; inhibitor
About 3,200 (25%) of roughly 13,000 compounds showed an effect of 50% or more. This is one part of the list.
test readout: % Inhibition (%)
Quick reminder: number only, in %, skip the unit.

These solved cases illustrate the format of a correct answer.
>>> numeric_readout("CCCC(N)C(=O)NC1CCN(c2c(F)c(N)c3c(=O)c(C(=O)O)cn4c3c2Oc2ccccc2-4)C1 (stereo not shown)")
40.26
>>> numeric_readout("O=C(NC1CCCc2ccccc21)C1CCCN(C(=O)c2ccc(O)c(-c3ccc(Cl)c(Cl)c3)c2)C1 (stereo not shown)")
19.76
>>> numeric_readout("COCCCNC(=O)[C@H]1CNCCN1C(=O)c1ccccc1")
-7.699

Consider the additional compound presented here.
Request: Which % Inhibition reading was recorded for the compound "COc1ccc2nccc([C@@H](O)CN3CCC(NCc4ccc(OC)c(NC(C)=O)c4)CC3)c2c1" ?
Result: -24.43

---

- Tested on: P. falciparum stage V gametocytes
- Design: BacTiter-Glo ATP luminescence viability of purified stage V gametocytes in 384-well plates, per cent inhibition versus DMSO
- test conditions: 48 h, 5 µM; inhibitor
The campaign covered roughly 13,000 compounds. About 3,200 (25%) showed an effect of 50% or more. The list shows a part of the results.
test readout: % Inhibition

These solved cases illustrate the format of a correct answer.
>>> result("CC1CN(C(=O)c2sc3ccccc3c2Cl)CC(C)O1 (centres unmarked)")
"2.721%"
>>> result("O=C(NCCCCCN1CCC(c2c[nH]c3ccccc23)CC1)Nc1cccc(Br)c1")
"-20.19%"
>>> result("CN(C)c1cc(NC(=O)Nc2ccc(SC(F)(F)F)cc2)c2ccccc2n1")
"86%"
>>> result("CN(C)CCNCc1cccc(-c2ccc3c(Nc4ccc(Oc5ccccn5)cc4)ccnc3c2)c1")
"98.43%"

Request: Which % Inhibition reading was recorded for the compound "O=C(NCCCCCN1CCC(c2c[nH]c3ccccc23)CC1)Nc1ccc(I)cc1" ?
Result: -24.33%

---

- Tested on: P. falciparum stage V gametocytes
- Design: BacTiter-Glo ATP luminescence viability of purified stage V gametocytes in 384-well plates, per cent inhibition versus DMSO
- test conditions: 48 h, 5 µM; inhibitor
The campaign covered roughly 13,000 compounds. About 3,200 (25%) showed an effect of 50% or more. Some of the results follow.
test readout: % Inhibition (%)
Quick reminder: number only, in %, skip the unit.

>>> numeric_readout("CCC(C)(C)c1ccc(OCC(O)CN2CCCCC2)c(C(C)(C)CC)c1 (centres unmarked)")
2.758
>>> numeric_readout("FC(F)(F)c1ccc2[nH]c(-c3ccc(-c4cccc(CNCCc5cccnc5)c4)s3)nc2c1.O=C(O)C(F)(F)F")
67.94
>>> numeric_readout("CS(=O)(=O)NCCCNCc1cccc(-c2ccc(-c3nc4cc(C(F)(F)F)ccc4[nH]3)s2)c1.O=C(O)C(F)(F)F")
-25.93
>>> numeric_readout("CCc1nc(N)nc(N)c1-c1ccc(F)cc1")
5.569
>>> numeric_readout("Cc1ccccc1OCC(O)CN1CCC(C2CCN(CC(O)COc3ccccc3C)CC2)CC1 (centres unmarked)")
97.67
>>> numeric_readout("CNCCNCc1cccc(-c2ccc(-c3nc4cc(C(F)(F)F)ccc4[nH]3)s2)c1.O=C(O)C(F)(F)F")
50.68
>>> numeric_readout("COc1cccc2c(O)c(CNC3CCCCC3)ccc12")
11.64

Consider the additional molecule presented here.
Request: Value wanted: % Inhibition (P. falciparum stage V gametocytes) of entry "FC(F)(F)c1ccc2[nH]c(-c3ccc(-c4cccc(CNCc5ccccc5)c4)s3)nc2c1.O=C(O)C(F)(F)F"
Result: -60.8

---

Entries annotated with measured % Inhibition
- System: P. falciparum stage V gametocytes
- Design: BacTiter-Glo ATP luminescence viability of purified stage V gametocytes in 384-well plates, per cent inhibition versus DMSO
- test conditions: 48 h, 5 µM; inhibitor
Hit rate of the full screen: of about 13,000 compounds, about 3,200 (25%) showed an effect of 50% or more. The list shows a part of the results.
Quick reminder: number only, in %, skip the unit.

>>> numeric_readout("CCCCN1C(=O)C(c2ccccc2)(c2ccccc2)N=C1N")
12.88
>>> numeric_readout("c1ccc2c(c1)CN(CC1CC1)CC1(CCN(Cc3c[nH]c4cnccc34)CC1)O2")
-19.67
>>> numeric_readout("COc1cc2nc(N(C)CC3COc4ccccc4O3)nc(N)c2cc1OC.Cl (stereo not drawn)")
-22.31
>>> numeric_readout("Cc1ccccc1Oc1ccc(Nc2ccnc(Nc3cccc(C(N)=O)c3)n2)cc1C(F)(F)F")
1.674
>>> numeric_readout("CC1(C)CC(NCCCCCCCOc2ccc(OCc3ccccc3)cc2)CC(C)(C)N1")
104
>>> numeric_readout("CC(C)N1CCCN(C(=O)C2CCN(c3ccc(C(=O)N4CCCC4)cn3)CC2)CC1")
39.57
>>> numeric_readout("COc1cc(Cc2cnc(N)nc2N)cc(OCCCCCC(N)=O)c1OC")
38.24
>>> numeric_readout("Oc1ccc(CN2Cc3ccccc3OC3(CCN(Cc4c[nH]c5cnccc45)CC3)C2)cc1")
0.4377

Consider the additional molecule presented here.
Request: Which % Inhibition reading was recorded for the molecule "C1=C(c2c[nH]c3ccccc23)CCN(Cc2ccccc2)C1" ?
Result: -71.35

---

- Test system: P. falciparum stage V gametocytes
- Parameters: BacTiter-Glo ATP luminescence viability of purified stage V gametocytes in 384-well plates, per cent inhibition versus DMSO
- test conditions: 48 h, 5 µM; inhibitor
Among all 13,000 compounds or so, about 3,200 (25%) showed an effect of 50% or more. The list shows a part of the results.
# cutoff 50% applies to % Inhibition; >= gives satisfied, < gives not satisfied

>>> answer_label("COc1cccc(CN2CCN(C(c3ccccc3)c3ccccc3)CC2)c1O")
"not satisfied"
>>> answer_label("CCN(CC)CCCC(C)Nc1cc(C=Cc2ccc([N+](=O)[O-])cc2)nc2ccc(OC)cc12.O=P(O)(O)O (centres unmarked)")
"satisfied"
>>> answer_label("N#Cc1cc(C(=O)c2cc(Cl)ccc2O)cn(-c2cc(Cl)cc(Cl)c2)c1=O")
"not satisfied"
>>> answer_label("Cc1ccc(-c2noc(=O)n2CC(=O)Nc2ccccc2-c2ccccc2)cc1")
"not satisfied"
>>> answer_label("CC(C)CCN1CCCN(Cc2cccc(C(=O)Nc3ccc(C(C)(C)C)cc3)c2)CC1")
"not satisfied"
>>> answer_label("COc1ccc(CNCc2cccc(-c3cccc(-c4nc5cccc(C)c5[nH]4)c3)c2)cc1.O=C(O)C(F)(F)F")
"not satisfied"

Request: State whether the measured % Inhibition reaches 50%, counting equality as reaching it, for CCN(CC)CCCC(C)Nc1ccnc2ccc(OC)cc12.Cl.O (centres unmarked)
Result: not satisfied

Request: State whether the measured % Inhibition reaches 50%, counting equality as reaching it, for "O=C(Nc1ccc(Cl)c(-c2nc3ccccc3[nH]2)c1)c1ccc(-c2ccc(Cl)cc2)o1"
Result: not satisfied

Request: State whether the measured % Inhibition reaches 50%, counting equality as reaching it, for "CCNc1cc(C(=O)N[C@@H](Cc2ccccc2Cl)[C@H](O)CNC2CCCCC2)cc(N2CCCCS2(=O)=O)c1"
Result: not satisfied

Request: State whether the measured % Inhibition reaches 50%, counting equality as reaching it, for "NC(=O)c1cccc(C(=O)Nc2cccc(-c3cccc(-c4nc5ccccc5[nH]4)c3)c2)c1"
Result: not satisfied

Request: State whether the measured % Inhibition reaches 50%, counting equality as reaching it, for "Cn1ccc(C(=O)Nc2ccc3c(c2)CN(Cc2ccc(N4CCCC4)o2)CCC3)n1"
Result: not satisfied

Request: State whether the measured % Inhibition reaches 50%, counting equality as reaching it, for "Clc1ccc2nc(-c3cccnc3)[nH]c2c1"
Result: not satisfied

Request: State whether the measured % Inhibition reaches 50%, counting equality as reaching it, for CCN(CC)CCCC(C)Nc1cc(C)nc2cc(Cl)ccc12 (centres unmarked)
Result: not satisfied

Request: State whether the measured % Inhibition reaches 50%, counting equality as reaching it, for Cc1c(S(=O)(=O)Nc2ccc3nccc(N4CC(C)NC(C)C4)c3c2)sc2ccc(Cl)cc12 (centres unmarked)
Result: not satisfied

Request: State whether the measured % Inhibition reaches 50%, counting equality as reaching it, for "CCOC(=O)c1[nH]c2cc(Cl)cc(Cl)c2c1/C=C/C(=O)Nc1ccc(-c2cnc(NC(C)=O)[nH]2)cc1"
Result: not satisfied

Request: State whether the measured % Inhibition reaches 50%, counting equality as reaching it, for COc1ccc(OCCCN2CCN(CC(c3ccc(F)cc3)N3CCN(C(C)C)CC3)CC2)c2ccccc12 (centres unmarked)
Result: satisfied

Request: State whether the measured % Inhibition reaches 50%, counting equality as reaching it, for Cc1ccnc(NC(c2cccc(OCc3ccccc3)c2)c2ccc3cccnc3c2O)c1 (centres unmarked)
Result: satisfied

Request: State whether the measured % Inhibition reaches 50%, counting equality as reaching it, for "C=C[C@H]1CN2CC[C@H]1C[C@H]2[C@H](O)c1ccnc2ccccc12"
Result: not satisfied

Request: State whether the measured % Inhibition reaches 50%, counting equality as reaching it, for COc1ccc2ccccc2c1CCCCN1CCN(CC(c2ccc(F)cc2)N2CCC2)CC1 (centres unmarked)
Result: satisfied

Request: State whether the measured % Inhibition reaches 50%, counting equality as reaching it, for Cc1ccnc(NC(c2ccc(Cl)c([N+](=O)[O-])c2)c2ccc3cccnc3c2O)c1 (centres unmarked)
Result: satisfied
